Sourced from ChEMBL document CHEMBL1130297

# EXPERIMENTAL TARGET: Human immunodeficiency virus type 1 protease (Human immunodeficiency virus 1, UniProt Q72874)
Recorded IC50 split into classes lower = under 3 nM, middle = from 3 nM up to 7 nM, upper = 7 nM and over

COMPOUND | LABEL
Cc1cc(SC2=C(O)OC(CCc3ccccc3)(c3ccc(OCCO)cc3)CC2=O)c(C(C)(C)C)cc1O (stereo not drawn) | middle
Cc1cc(SC2=C(O)OC(CCc3ccccc3)(c3ccccc3)CC2=O)c(C(C)(C)C)cc1CO (stereo not drawn) | middle
Cc1cc(SC2=C(O)OC(CCc3ccc(O)cc3)(c3ccccc3)CC2=O)c(C(C)(C)C)cc1CO (stereo not drawn) | lower
Cc1cc(SC2=C(O)OC(C)(CCc3ccc(O)cc3)CC2=O)c(C(C)(C)C)cc1CO (stereo not drawn) | middle
Cc1cc(SC2=C(O)OC(CCc3ccc(N)cc3)(C3CCCCC3)CC2=O)c(C(C)(C)C)cc1CO (stereo not drawn) | middle
Cc1cc(SC2=C(O)OC(CCc3ccc(N)cc3)(c3ccccc3)CC2=O)c(C(C)(C)C)cc1CO (stereo not drawn) | middle
Cc1cc(SC2=C(O)OC(CCc3ccccc3)(c3ccc(OCCO)cc3)CC2=O)c(C(C)(C)C)cc1OCCO (stereo not drawn) | middle
Cc1cc(SC2=C(O)OC(CCc3cccc(O)c3)(c3ccccc3)CC2=O)c(C(C)(C)C)cc1CO (stereo not drawn) | lower
Cc1ccc(C(C)(C)C)c(SC2=C(O)OC(CCc3ccc(O)cc3)(c3ccccc3)CC2=O)c1 (stereo not drawn) | upper
Cc1cc(SC2=C(O)OC(CCc3ccc(O)cc3)(C(C)C)CC2=O)c(C(C)(C)C)cc1CO (stereo not drawn) | middle
Cc1ccc(C(C)(C)C)c(SC2=C(O)OC(CCc3ccccc3)(c3ccc(OCCO)cc3)CC2=O)c1 (stereo not drawn) | upper
Cc1cc(SC2=C(O)OC(CCc3ccccc3)(c3ccc(OCCO)cc3)CC2=O)c(C(C)(C)C)cc1CO (stereo not drawn) | lower
Cc1ccc(C(C)(C)C)c(SC2=C(O)OC(CCc3ccccc3)(c3ccc(O)cc3)CC2=O)c1 (stereo not drawn) | upper
Cc1cc(SC2=C(O)OC(CCc3ccc(N)cc3)(C(C)C)CC2=O)c(C(C)(C)C)cc1CO (stereo not drawn) | lower
Cc1cc(SC2=C(O)OC(CCc3ccc(O)cc3)(c3ccc(O)cc3)CC2=O)c(C(C)(C)C)cc1CO (stereo not drawn) | upper
Cc1cc(SC2=C(O)OC(CCc3ccccc3)(c3ccccc3)CC2=O)c(C(C)(C)C)cc1O (stereo not drawn) | upper
COCc1cc(C(C)(C)C)c(SC2=C(O)OC(CCc3ccccc3)(c3ccc(OCCO)cc3)CC2=O)cc1C (stereo not drawn) | middle

---

# key: entry, value: CC50
# PROTOCOL DESCRIPTION: Cytotoxicity in CEM cells in the absence of virus
# Format: cell-based
# RECORDED CONDITIONS: human, CEM (CCRF-CEM) cells; read-out: TC50 (the source's name)

COMPOUND | INEQUALITY SIGN | CC50 / µM
Cc1cc(SC2=C(O)OC(CCc3ccccc3)(c3ccc(OCCO)cc3)CC2=O)c(C(C)(C)C)cc1CO (centres undefined) | = | 67
Cc1cc(SC2=C(O)OC(C)(CCc3ccc(O)cc3)CC2=O)c(C(C)(C)C)cc1CO (centres undefined) | > | 100
Cc1cc(SC2=C(O)OC(CCc3ccccc3)(c3ccccc3)CC2=O)c(C(C)(C)C)cc1OCCO (centres undefined) | = | 20
Cc1cc(SC2=C(O)OC(CCc3ccccc3)(c3ccccc3)CC2=O)c(C(C)(C)C)cc1O (centres undefined) | = | 23
Cc1ccc(C(C)(C)C)c(SC2=C(O)OC(CCc3ccccc3)(c3ccc(N)cc3)CC2=O)c1 (centres undefined) | = | 67
Cc1ccc(C(C)(C)C)c(SC2=C(O)OC(CCc3ccccc3)(c3ccc(OCCO)cc3)CC2=O)c1 (centres undefined) | = | 23
Cc1cc(SC2=C(O)OC(CCc3ccc(N)cc3)(C3CCCCC3)CC2=O)c(C(C)(C)C)cc1CO (centres undefined) | = | 80
Cc1ccc(C(C)(C)C)c(SC2=C(O)OC(CCc3ccccc3)(c3ccc(O)cc3)CC2=O)c1 (centres undefined) | = | 23
Cc1ccc(C(C)(C)C)c(SC2=C(O)OC(CCc3ccccc3)(c3ccccc3)CC2=O)c1 (centres undefined) | = | 55
